- test_system: recombinant human DHODH (Homo sapiens)
- Construct: provided by Prof; M. Löffler, Marburg, Germany (gift, not purchased)
- experimental_details: Inhibition assay of DHODH activity (human enzyme)
- Format: biochemical
- experimental_context: recombinant human DHODH, class symbols (in nM); read-out: human IC50-Value
measure_name: IC50

molecule="COc1ccc(Oc2ccc(C(F)(F)F)cc2NC(=O)C2=C(C(=O)O)CCC2)cc1 [Compound 59]" test_system="recombinant human DHODH (Homo sapiens)" result="> 1500 nM"
molecule="COc1ccccc1-c1ccc(NC(=O)C2=C(C(=O)O)CCC2)cc1 [Compound 15]" test_system="recombinant human DHODH (Homo sapiens)" result="< 800 nM"
molecule="COc1ccccc1-c1cc(Cl)c(NC(=O)C2=C(C(=O)O)CCC2)c(Cl)c1 [Compound 58]" test_system="recombinant human DHODH (Homo sapiens)" result="< 800 nM"
molecule="COc1ccc(-c2ccc(NC(=O)C3=C(C(=O)O)CCC3)cc2C)cc1 [Compound 23]" test_system="recombinant human DHODH (Homo sapiens)" result="< 800 nM"

// each listed molecule needs a value for IC50
1. O=C(O)C1=C(C(=O)Nc2ccc(Oc3ccccc3)cc2)CCC1 [Compound 50]
2. O=C(O)C1=C(C(=O)Nc2ccc(Oc3ccccc3)cc2)COC1 [Compound 51]

1. < 800 nM
2. > 1500 nM

// each listed molecule needs a value for IC50
1. O=C(O)C1=C(C(=O)Nc2ccc(Oc3ccc(F)cc3F)cc2)CCC1 [Compound 60]
2. O=C(O)C1=C(C(=O)Nc2ccc(OCc3ccccc3)c(Cl)c2)CCC1 [Compound 72]
3. COc1ccccc1-c1ccc(NC(=O)C2=C(C(=O)O)CCC2)c(C)c1 [Compound 57]

1: 800 to 1500 nM; 2: < 800 nM; 3: < 800 nM

###

- test_system: recombinant human DHODH (Homo sapiens)
- Construct: provided by Prof; M. Löffler, Marburg, Germany (gift, not purchased)
- experimental_details: Inhibition assay of DHODH activity (human enzyme)
- Format: biochemical
- experimental_context: recombinant human DHODH, class symbols (in nM); read-out: human IC50-Value
measure_name: IC50

The examples below pair each entry with its known result.
substance_smiles=O=C(O)C1=C(C(=O)NCCCCc2ccccc2)CCC1 result="> 1500 nM"
substance_smiles=COc1ccc(-c2cc(F)c(NC(=O)C3=C(C(=O)O)CCC3)c(F)c2)c(OC)c1 result="< 800 nM"
substance_smiles=O=C(O)C1=C(C(=O)Nc2ccc(-c3ccccc3Cl)cc2)CCC1 result="< 800 nM"

// each listed molecule needs a value for IC50
1. COc1cc(-c2ccccc2)ccc1NC(=O)C1=C(C(=O)O)CCC1
2. O=C(O)C1=C(C(=O)Nc2ccc(-c3cccc(F)c3)cc2F)CCC1
3. O=C(O)C1=C(C(=O)Nc2ccc(Oc3ccc(Cl)cc3)cc2)CCC1
4. COc1ccc(-c2ccc(NC(=O)C3=C(C(=O)O)CCC3)cc2Cl)cn1
5. O=C(O)C1=C(C(=O)Nc2ccc(-c3ccccc3Cl)cc2)CSC1
6. COc1ccccc1-c1ccc(NC(=O)C2=C(C(=O)O)CCC2)c(C(F)(F)F)c1

< 800 nM
< 800 nM
> 1500 nM
< 800 nM
< 800 nM
> 1500 nM

###

For each record, write down the corresponding pIC50.
- test_system: recombinant human DHODH (Homo sapiens, UniProt Q02127)
- Construct: provided by Prof; M. Löffler, Marburg, Germany (gift, not purchased)
- Sequence (Q02127 whole entry): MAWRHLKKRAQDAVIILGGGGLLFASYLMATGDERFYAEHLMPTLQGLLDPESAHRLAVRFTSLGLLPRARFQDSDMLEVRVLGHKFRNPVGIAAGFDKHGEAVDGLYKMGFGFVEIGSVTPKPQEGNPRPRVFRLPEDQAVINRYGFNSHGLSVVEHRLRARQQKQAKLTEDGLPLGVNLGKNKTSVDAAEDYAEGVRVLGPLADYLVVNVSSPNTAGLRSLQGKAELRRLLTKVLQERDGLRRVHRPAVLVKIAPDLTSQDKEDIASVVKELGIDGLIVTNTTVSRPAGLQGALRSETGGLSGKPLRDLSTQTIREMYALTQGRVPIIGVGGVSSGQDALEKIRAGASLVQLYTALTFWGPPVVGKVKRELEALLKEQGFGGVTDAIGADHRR
- experimental_details: Inhibition assay of DHODH activity (human enzyme)
- Type: biochemical
pIC50: −log10 of the molar value.

The examples below pair each entry with its known result.
compound="COc1ccccc1-c1c(F)c(F)c(NC(=O)C2=C(C(=O)O)CCC2)c(F)c1F [Compound 56]" measure_name=pIC50 result="> 6.10"
compound="O=C(O)C1=C(C(=O)Nc2ccc(-c3ccccc3)cc2)CCC1 [Compound 02]" measure_name=pIC50 result=6.16

Please find the next compound below.
Supply recorded pIC50 for O=C(O)C1=C(C(=O)Nc2cc(Br)c(OCc3ccccc3)c(Br)c2)CSC1 [Compound 29] here.
> 6.10
